Assay: Cytotoxicity against human HepG2 cells
Assay type: toxicity, cell-based
readout kind: IC50

Looking up CC1=C(C)[C@H]2[C@H](Cc3ccc(O)cc3)NC(=O)[C@]23OC(=O)C/C=C(/C)C(=O)[C@@H](C)C/C=C/[C@H]3[C@@H]1O , I found its IC50 recorded as > 100 µM

###

Tested on: Plasmodium falciparum
Assay: Antiplasmodial activity against drug-resistant Plasmodium falciparum 3D7r_MMV848
Type: functional, organism-based
readout kind: pIC50
The meaning of pIC50 here: minus log10 of the concentration in molar units.

Looking up CC1=C(C)[C@H]2[C@H](Cc3ccc(O)cc3)NC(=O)[C@]23OC(=O)C/C=C(/C)C(=O)[C@@H](C)C/C=C/[C@H]3[C@@H]1O , I found its pIC50 recorded as 5.40
